# assay_summary: inhibitors of the yeast RAM network, pilot screen, dse1pr::URA3 reporter, 5-FOA selection (AID 869);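 note: 0% = DMSO wells with no growth and 100% = 10 µM 1-NA-PP1 with full growth; RAM network block rescues cells from 5-FOA so hits raise OD615 growth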
# test_settings: S. cerevisiae dse1pr::URA3 5-FOA growth, OD615, 2 d; at 10 µM; active compounds read high; strain carries analog-sensitive mutant Cbk1 kinase
assay_readout: inhibition (%)
The answer is to be given in %; state only the numeric part.

Some entries whose results are on file:
Let me know recorded inhibition for Cc1cccc(CCNC(=O)C2CCC(CNc3c(N4CCCC4)c(=O)c3=O)CC2)c1 (stereo unspecified) , thanks. 1.26

Look up inhibition of "Cn1c(C(=O)NCCCN2CCOCC2)cc2c(=O)n(C)c3ccccc3c21" and report it. 1.67

Please report the measured inhibition for COCC(C)NC(=O)c1ccc(N(C)C)cc1 (stereo unspecified) 2.1

New cases:
Find the measured inhibition of CC(=O)c1ccc(NC(=O)C2CCC(C)(C(=O)O)C2(C)C)cc1 (stereo unspecified) and report it. 2.73

Please look at this compound and report its inhibition: CCn1cc(C(=O)N2CC(C)CC(C)C2)c(=O)c2cc(S(=O)(=O)N(C)C)ccc21 (stereo unspecified) -0.3

For the compound Cc1ccc(OS(=O)Nc2cccc3nccnc23)cc1 (stereo unspecified) , give its measured inhibition value. 1.72

Please report the measured inhibition for "COCCN1Cc2cccc(C(=O)NCc3cccnc3)c2C1=O" 3.75

----------
# assay_summary: growth suppression of PTEN-deleted HCT116, pilot screen, cell-based, HCT116 clonal line, CellTiter-Glo (AID 824);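 note: 0% = 20 µM Hyamine control and 100% = vehicle cell control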
# test_settings: 60 h, at 10 µM, active compounds read low
Records with an inconclusive call do not appear.
Parameter: viability. Scope: all listed entries.
Answer in %, number only, no unit symbol.

Some solved entries appear below for comparison.
Assign viability to the following record: "CN1CCc2c(sc(NC(=O)c3ccc(S(=O)(=O)N4CCOCC4)cc3)c2C(N)=O)C1" 103

Indicate its recorded viability; the compound in question is "COC(=O)c1c(C(=O)OC)c2n(c1C)Cc1ccccc1C2" 90.2

Give the reported value of viability for this record: "O=P(O)(CCc1ccncc1)CN1CCCCC1" 101

Item O=C(C1CCCN(S(=O)(=O)c2cccc3cccnc23)C1)N1CCN(c2ccc(F)cc2)CC1 (stereo unspecified) : provide viability 61.8

Name the recorded viability of the item "c1nc2nc3c(c(N4CCOCC4)n2n1)CCCC3" in your answer. 99.7

Now, please, on to the next compound.
Indicate the recorded viability value for this compound: "CCc1nnc(NC(=O)CN2CCOCC2)s1" 101

----------
# assay_summary: growth suppression of PTEN-deleted HCT116, pilot screen, cell-based, HCT116 clonal line, CellTiter-Glo (AID 824);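 note: 0% = 20 µM Hyamine control and 100% = vehicle cell control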
# test_settings: 60 h, at 10 µM, active compounds read low
Inconclusive results are not listed.
Measured viability by item
Only the number, expressed in %, is required.

Note viability for the compound shown: "CCOC(=O)CNC(=O)CSc1nnc(Cn2c(=O)sc3ccccc32)n1C" 98

// fetch viability given entry "COCN(C#N)c1nc(OC)nc(OC)n1" 104

State, in one line, measured viability of "Cc1sc2nc(SCC(=O)N3CCCC3)[nH]c(=O)c2c1C" 98

Give a short answer stating reported viability for "Cc1ccc(-n2ncc3c(=O)[nH]c(SCC(=O)N4CCC(C)CC4)nc32)cc1C" . 85.3

State its viability for this compound: "CCOC(=O)c1ccccc1NC(=O)CN(c1ccccc1OCC)S(C)(=O)=O" 98

Continuing:
Provide one value: measured viability of "Cc1cc(=O)c2c(C)nn(-c3ccccc3)c2[nH]1" 92.3

Identify viability associated with the compound Cc1cccc(C2Nc3ccccc3C(=O)N2CCc2ccccc2)n1 (stereo unspecified) 73.5

Please report viability for the following compound: COCCOC(=O)C1=C(C)NC2=C(C(=O)CCC2)C1c1ccc(N(C)C)cc1 (stereo unspecified) 93.4

Identify the reported viability for the following entry. "COc1ccc(NCCNc2ccc(OC)cc2)cc1" 59.5

For the compound COC(=O)C(C)n1cnc2c(nnn2-c2cccc(Cl)c2)c1=O (stereo unspecified) , give its reported viability. 99

Could you please provide reported viability for "COc1ccc(OC)c(C2=Nn3c(nnc3-c3ccncc3)SC2)c1" ? Thanks! 71.1
